# Test system: Escherichia coli TOP10
# assay: shrunken log2 fold change of peptide-encoding DNA abundance (4.5 h post-induction vs induction); higher = less antimicrobial activity (less host growth inhibition)
# setup_conditions: time post-induction: 4.5 h; library: site-saturation at positions 5, 18, 19, 20
Reported values of shrunken log2 fold change for individual entries
Answer field: number only, no words.

Worked cases, answers included:
RRIRDRPPRLPRPRPRPRIDPRP: 0.0784
RRIRSRPPRLPRPRPRPTIWPRP: 0.393
RRIRSRPPRLPRPRPRPTTDPRP: 0.0457
RRIRQRPPRLPRPRPRPPQIPRP: 0.238
RRIRQRPPRLPRPRPRPIDFPRP: -0.0381

Kindly note the recorded shrunken log2 fold change for RRIRMRPPRLPRPRPRPGDKPRP , which is 0.9

Kindly note the recorded shrunken log2 fold change for RRIRLRPPRLPRPRPRPFKWPRP , which is 0.00989

Kindly note the recorded shrunken log2 fold change for RRIRKRPPRLPRPRPRPLMEPRP , which is 0.124

Kindly note the recorded shrunken log2 fold change for RRIRARPPRLPRPRPRPPCTPRP , which is 0.164

Kindly note the recorded shrunken log2 fold change for RRIRYRPPRLPRPRPRPVKDPRP , which is -0.0122

Kindly note the recorded shrunken log2 fold change for RRIRHRPPRLPRPRPRPVIIPRP , which is -0.248

###

# System: Escherichia coli TOP10
# assay: shrunken log2 fold change of peptide-encoding DNA abundance (4.5 h post-induction vs induction); higher = less antimicrobial activity (less host growth inhibition)
# setup_conditions: time post-induction: 4.5 h; library: site-saturation at positions 5, 18, 19, 20
Reported values of shrunken log2 fold change for individual entries
Answer field: number only, no words.

Worked cases, answers included:
RRIRFRPPRLPRPRPRPAAMPRP: 1.58
RRIRARPPRLPRPRPRPRPMPRP: 0.771
RRIRFRPPRLPRPRPRPLSYPRP: -0.0166
RRIRCRPPRLPRPRPRPTRFPRP: 0.696

Kindly note the recorded shrunken log2 fold change for RRIRGRPPRLPRPRPRPWLPPRP , which is -0.0942

Kindly note the recorded shrunken log2 fold change for RRIRQRPPRLPRPRPRPQATPRP , which is -0.00963

Kindly note the recorded shrunken log2 fold change for RRIRARPPRLPRPRPRPPMYPRP , which is -0.147

Kindly note the recorded shrunken log2 fold change for RRIRDRPPRLPRPRPRPSMPPRP , which is -0.164

Kindly note the recorded shrunken log2 fold change for RRIRTRPPRLPRPRPRPFMLPRP , which is -0.706

Kindly note the recorded shrunken log2 fold change for RRIRRRPPRLPRPRPRPVALPRP , which is 0.225

###

Reported values of shrunken log2 fold change for individual entries
# Tested on: Escherichia coli TOP10;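 further: peptides expressed intracellularly from a pBAD plasmid library in pooled LB shake-flask culture, induced with 0.3% L-arabinose, DNA abundance read by NGS, three biological replicates, DESeq2 with apeglm shrinkage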
# assay: shrunken log2 fold change of peptide-encoding DNA abundance (4.5 h post-induction vs induction); higher = less antimicrobial activity (less host growth inhibition)
# setup_conditions: time post-induction: 4.5 h; library: site-saturation at positions 5, 18, 19, 20
Answer field: number only, no words.

Worked cases, answers included:
RRIRSRPPRLPRPRPRPETLPRP: 0.0893
RRIRQRPPRLPRPRPRPRDDPRP: 0.538
RRIRMRPPRLPRPRPRPFGHPRP: -0.0287
RRIRNRPPRLPRPRPRPELHPRP: 0.102
RRIRWRPPRLPRPRPRPNNSPRP: -0.723
RRIRARPPRLPRPRPRPIKNPRP: 0.00937
RRIRNRPPRLPRPRPRPYESPRP: -0.829
RRIRVRPPRLPRPRPRPNVPPRP: -0.345

Value (shrunken log2 fold change, Escherichia coli TOP10) for record RRIRWRPPRLPRPRPRPPIHPRP = -0.448

Value (shrunken log2 fold change, Escherichia coli TOP10) for record RRIRQRPPRLPRPRPRPKPCPRP = -0.273

Value (shrunken log2 fold change, Escherichia coli TOP10) for record RRIRGRPPRLPRPRPRPRHEPRP = 0.604
